target: T1, hB7-H3-Fc; test: ELISA on coated hB7-H3-Fc (2 ug/mL), HRP anti-human kappa secondary, A450, antibody from 300 nM in 3-fold dilutions; axis 'Concentration' has no unit, nM from p-1066
T1 construct: also called antigen hB7-H3-Fc
T1 sequence (fusion chain, as listed by the source limits assumed): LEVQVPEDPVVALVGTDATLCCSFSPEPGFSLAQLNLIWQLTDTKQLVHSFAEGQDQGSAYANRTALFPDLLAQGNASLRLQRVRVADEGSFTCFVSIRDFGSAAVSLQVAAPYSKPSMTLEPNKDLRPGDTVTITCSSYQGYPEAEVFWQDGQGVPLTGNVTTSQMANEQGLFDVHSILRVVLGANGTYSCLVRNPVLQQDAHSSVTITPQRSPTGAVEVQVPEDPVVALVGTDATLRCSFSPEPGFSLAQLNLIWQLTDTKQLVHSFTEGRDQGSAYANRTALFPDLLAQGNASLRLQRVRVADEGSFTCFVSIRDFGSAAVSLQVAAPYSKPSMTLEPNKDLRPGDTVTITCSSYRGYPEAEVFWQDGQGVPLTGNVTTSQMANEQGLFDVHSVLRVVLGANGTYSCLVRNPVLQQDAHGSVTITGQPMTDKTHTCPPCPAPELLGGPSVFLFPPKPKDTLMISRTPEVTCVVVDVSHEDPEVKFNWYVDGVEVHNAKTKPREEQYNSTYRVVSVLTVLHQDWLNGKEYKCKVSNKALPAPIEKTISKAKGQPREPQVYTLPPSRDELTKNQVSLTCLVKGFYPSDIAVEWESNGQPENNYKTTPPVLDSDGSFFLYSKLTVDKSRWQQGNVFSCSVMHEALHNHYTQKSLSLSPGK
Record form. Attribute: pEC50. Fill in for each entry.
Give bare numbers, as −log10 of the molar value.

Take a look at these entries with their results.
{"columns": ["Binder", "pEC50"],
 "data": [
  ["control Antibody M30-H1-L4 (antibody, human IgG1, kappa, V domains shown, Control anti-B7-H3 antibody) VH: QVQLVQSGAEVKKPGSSVKVSCKASGYTFTNYVMHWVRQAPGQGLEWMGYINPYNDDVKYNEKFKGRVTITADESTSTAYMELSSLRSEDTAVYYCARWGYYGSPLYYFDYWGQGTLVTVSS VL: EIVLTQSPATLSLSPGERATLSCRASSRLIYMHWYQQKPGQAPRPLIYATSNLASGIPARFSGSGSGTDFTLTISSLEPEDFAVYYCQQWNSNPPTFGQGTKVEIKR", 8.43],
  ["Antibody V5 (antibody, human IgG1, kappa, V domains shown, Humanized from chimeric antibody M1; also called humanized antibody V5) VH: QVQLVQSGAEVKKPGASVKVSCKASGYTFTDYDINWVRQAPGQRLEWIGWIFPGDDTTKYNEKFKGRATLTADKSASTAYMELSSLRSEDTAVYYCARSPSFDYWGQGTLVTVSS VL: QIVLTQSPSSLSASVGDRVTITCSASSTIGFMYWYQQKPGKAPKRWIYDTSKLASGVPSRFSVSGSGTDYTLTISSLQPEDFATYYCHQRSSYPTFGQGTKVEIKR", 8.08],
  ["Antibody V1 (antibody, human IgG1, kappa, V domains shown, Humanized from chimeric antibody M1; also called humanized antibody V1) VH: EVQLVQSGAEVKKSGESLKISCKASGYTFTDYDINWVRQMPGKGLEWMGWIFPGDDTTKYNEKFKGQVTISADKSTNTAYLQWSSLKASDTAMYYCARSPSFDYWGQGTLVTVSS VL: QIVLTQSPGTLSLSPGERATLSCSASSTIGFMYWYQQKPGQAPRRWIYDTSKLASGVPDRFSVSGSGTDYTLTISRLEPEDFAVYYCHQRSSYPTFGQGTKVEIKR", 8.40],
  ["Antibody V2 (antibody, human IgG1, kappa, V domains shown, Humanized from chimeric antibody M1; also called humanized antibody V2) VH: EVQLVQSGAEVKKSGESLKISCKASGYTFTDYDINWVRQMPGKGLEWIGWIFPGDDTTKYNEKFKGQVTLSADKSTNTAYMQWSSLKASDTAMYYCARSPSFDYWGQGTLVTVSS VL: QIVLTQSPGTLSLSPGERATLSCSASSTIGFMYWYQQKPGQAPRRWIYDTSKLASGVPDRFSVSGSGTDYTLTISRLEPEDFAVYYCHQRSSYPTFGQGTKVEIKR", 8.57],
  ["Antibody V3 (antibody, human IgG1, kappa, V domains shown, Humanized from chimeric antibody M1; also called humanized antibody V3) VH: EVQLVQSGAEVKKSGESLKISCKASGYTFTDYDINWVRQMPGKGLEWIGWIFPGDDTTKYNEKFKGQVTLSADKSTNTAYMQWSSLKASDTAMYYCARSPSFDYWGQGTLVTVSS VL: QIVLTQSPGTLSLSPGERATLSCSASSTIGFMYWYQQKPGQAPRRWIYDTSKLASGVPDRFSGSGSGTDYTLTISRLEPEDFAVYYCHQRSSYPTFGQGTKVEIKR", 8.75]
]}

Pending binder:
Query block: Suppose we examine the binder Antibody M1 (antibody, human IgG1, kappa, V domains shown, Chimeric antibody: murine variable regions on human IgG1 and light chain constant regions; expressed in HEK293F cells; also called chimeric antibody M1) VH: QVQLQQSGPELVKPGASVRISCKASGYTFTDYDINWVQQRPGQGLEWIGWIFPGDDTTKYNEKFKGRATLTADKSSNTAYMQLNGLTSENSAVYFCARSPSFDYWGQGTLVTVSS VL: QIVLTQSPAIMSASPGERVTMTCSASSTIGFMYWYQQKPGTSPKRWIYDTSKLASGVPARFSVSGSGTSYSLTISSMEAEDAATYYCHQRSSYPTFGGGTKLEIKR ; what pEC50 value has been reported?
Result block: 8.43
